Run description: Viability qHTS for spleen associated tyrosine kinase inhibitor (SYKi) naive MV4-11 cells (AID 1963823); also: nearly all actives have a fitted effect of over 40% in size
Assay context: MV4-11 AML viability, CellTiter-Glo luminescence, 72 h; series mostly up to 45 µM
Description: Department of Medicine, Hematology/Oncology University Hospital Frankfurt, Germany. Trials have shown promising clinical activity of the selective SYK inhibitor entospletinib in patients with high expressing HOXA9/MEIS1 acute leukemias. […] 7; Detection; Luminescence; ViewLux plate reader (PerkinElmer). […] 1. Quantitative high-throughput screening (qHTS) of small molecule compounds was conducted on naive SYKi MV4-11 cell line. […] 7. Luminescence was measured on a ViewLux plate reader (PerkinElmer).
Records with an inconclusive call do not appear. The source made the active and inactive calls. Calls follow the shape of the dose curve; as a rule, active = well fitted cell-killing curve with a large enough effect; inconclusive = small, poorly fitted or top-dose-only effect, or effect the other way; inactive = no such curve, though single readings can be large or run the other way.
The categories you may choose from are active, inactive

{"Compound": "O=C1c2ccccc2-[n+]2ccc3c([nH]c4ccccc43)c21", "Label value": "active"}

[ask] Recorded test call requested for "Cc1nc(-c2ccc(OCC(C)C)c(C#N)c2)sc1C(=O)O"
[reply] inactive
